Assay: Solubility was determined at a pH of […]
Format: physicochemical
Settings: pH 7
quantity_measured: log10 of solubility (log10 of the value in µg/mL)
Each number you see is log10 of solubility, and the unit inside the log is µg/mL.

Prompt line: For COc1ccc(-c2ccc(S(=O)(=O)NC(CC#Cc3cccc(N4CCOCC4)c3)C(=O)O)cc2)cc1 (stereo not drawn) , what is its reported log10 of solubility?
Response line: 2.76

Prompt line: Next molecule up: COc1ccc(C#Cc2ccc(S(=O)(=O)NC(CC#Cc3ccccc3)C(=O)O)cc2)cc1 (stereo not drawn)
Response line: 1.30

Prompt line: Next molecule up: O=C(Nc1ccc(S(=O)(=O)NC(CC#CCN2CCOCC2)C(=O)O)cc1)c1ccc(Br)cc1 (stereo not drawn)
Response line: 3.64

Prompt line: Next molecule up: COCC#CCC(NS(=O)(=O)c1ccc(NC(=O)c2ccc(OC)cc2)cc1)C(=O)O (stereo not drawn)
Response line: 3.51

Prompt line: Next molecule up: CO[C@H](C#Cc1ccccc1)C(NS(=O)(=O)c1ccc(-c2ccc(SC)cc2)cc1)C(=O)O (stereo partly drawn)
Response line: 2.08

Prompt line: Next molecule up: COCC#CCC(NS(=O)(=O)c1ccc(-c2ccc(OC)cc2)cc1)C(=O)O (stereo not drawn)
Response line: 3.76

Prompt line: Next molecule up: COc1ccc(C(=O)Nc2ccc(S(=O)(=O)NC(CC#CCOc3ccccc3)C(=O)O)cc2)cc1 (stereo not drawn)
Response line: 2.61

For the next question, use this molecule.
Prompt line: For O=C(O)C(CC#Cc1ccccc1)NS(=O)(=O)c1ccc(-c2ccc3c(c2)OCO3)cc1 (stereo not drawn) , what is its reported log10 of solubility?
Response line: 1.90
